tested on: MCF7; experiment: Cytotoxicity against human MCF7 cells at 30 uM after 48 hrs by MTT assay; assay type: functional; details: MCF7, 48 h
Record form. Attribute: inhibition at 30 µM. Fill in for each entry.

[in] Fill in the blank: the reported inhibition at 30 µM of COC(=O)[C@]1(C)CC[C@]2(C)CC[C@]3(C)C4C(=O)C=C5C(=CC(=O)C(O)=C5C)[C@]4(C)CC[C@@]3(C)C2C1 (some centres undefined) is ____.
[out] 60%

[in] Fill in the blank: the reported inhibition at 30 µM of `COC(=O)[C@]1(C)CC[C@]2(C)CC[C@]3(C)C4=CC=C5C(=CC(=O)C(O)=C5C)[C@]4(C)CC[C@@]3(C)[C@@H]2C1` is ____.
[out] 100%

[in] Fill in the blank: the reported inhibition at 30 µM of `CC1=C(O)C(=O)C=C2C1=CC=C1[C@@]2(C)CC[C@@]2(C)[C@@H]3C[C@@H](C)C(=O)[C@@H](O)[C@]3(C)CC[C@]12C` is ____.
[out] 100%

[in] Fill in the blank: the reported inhibition at 30 µM of CC1=C2C3C(=O)C=C4C(=CC(=O)C(O)=C4C)[C@]3(C)CC[C@@]2(C)[C@@H]2C[C@@H](C)C(=O)C[C@]2(C)C1 (some centres undefined) is ____.
[out] 5%

====

tested on: MCF7; assay: Cytotoxicity against human MCF7 cells at 30 uM after 48 hrs by MTT assay; type: functional; conditions: MCF7, 48 h
Structures can show the parent of a compound that is named as a salt.
Record form. Attribute: inhibition at 30 µM. Fill in for each entry.
Respond with the bare value in %.

[in] Fill in the blank: the reported inhibition at 30 µM of COC(=O)[C@@]1(C)C[C@@H]2[C@@](C)(CC[C@]3(C)C4=CC=C5C(=CC(=O)C(O)=C5C)[C@]4(C)CC[C@@]23C)CC1=O [21-OXOPRISTIMERINE] is ____.
[out] 91

[in] Fill in the blank: the reported inhibition at 30 µM of Cc1c(O)c(O)cc2c1C(=O)C=C1[C@@]2(C)CC[C@@]2(C)[C@@H]3C[C@@H](C)C(=O)C[C@]3(C)CC[C@]12C [6-OXOTINGENOL] is ____.
[out] 17

[in] Fill in the blank: the reported inhibition at 30 µM of `COc1c(O)cc2c(c1C(=O)O)C(=O)C=C1[C@@]2(C)CC[C@@]2(C)[C@@H]3C[C@@H](C)C(=O)C[C@]3(C)CC[C@]12C` is ____.
[out] 11

[in] Fill in the blank: the reported inhibition at 30 µM of COC(=O)[C@@]1(C)C[C@@H]2[C@@](C)(CC[C@]3(C)C4CC(=O)c5c(cc(O)c(O)c5C)[C@]4(C)CC[C@@]23C)CC1=O (some centres not stated) [BLEPHARODOL] is ____.
[out] 7

[in] Fill in the blank: the reported inhibition at 30 µM of COc1cccc2c1C(=O)c1c(O)c3c(c(O)c1C2=O)C[C@@](O)(C(=O)CO)C[C@@H]3O[C@H]1C[C@H](N)[C@H](O)[C@H](C)O1 [DOXORUBICIN HYDROCHLORIDE] is ____.
[out] 98

[in] Fill in the blank: the reported inhibition at 30 µM of COC(=O)[C@]1(C)CC[C@]2(C)CC[C@]3(C)C4CC(=O)c5cc(O)c(O)cc5[C@]4(C)CC[C@@]3(C)[C@@H]2C1 (some centres not stated) is ____.
[out] 44

[in] Fill in the blank: the reported inhibition at 30 µM of CC1=C(O)C(=O)C=C2C1=CC=C1[C@@]2(C)CC[C@@]2(C)[C@@H]3C[C@@H](C)C(=O)C[C@]3(C)CC[C@]12C [TINGENONE] is ____.
[out] 100

[in] Fill in the blank: the reported inhibition at 30 µM of CC1=C(O)C(=O)C=C2C1=CC(=O)[C@@H]1[C@@]2(C)CC[C@@]2(C)[C@@H]3C[C@@H](C)C(=O)C[C@]3(C)CC[C@]12C [AMAZOQUINONE] is ____.
[out] 18

[in] Fill in the blank: the reported inhibition at 30 µM of CC1=C(O)C(=O)C=C2C1=CC=C1[C@@]2(C)CC[C@@]2(C)[C@@H]3C[C@](C)(O)C(=O)C[C@]3(C)CC[C@]12C [20ALPHA-HYDROXYTINGENONE] is ____.
[out] 100

[in] Fill in the blank: the reported inhibition at 30 µM of COC(=O)[C@@]1(C)C[C@@H]2[C@@](C)(CC[C@]3(C)C4CC(=O)c5c(cc(O)c(O)c5C=O)[C@]4(C)CC[C@@]23C)CC1=O (some centres not stated) [MACROCARPIN A] is ____.
[out] 36

[in] Fill in the blank: the reported inhibition at 30 µM of CC1=C(O)C(=O)CC2[C@]3(C)CC[C@@]4(C)[C@@H]5C[C@](C)(C(=O)O)CC[C@]5(C)CC[C@]4(C)C3CC[C@]12C=O (some centres not stated) [CANGORONINE] is ____.
[out] 15

[in] Fill in the blank: the reported inhibition at 30 µM of `CC1=C(O)C(=O)C=C2C1=CC=C1[C@@]2(C)CC[C@@]2(C)[C@@H]3C[C@@](C)(O)C(=O)C[C@]3(C)CC[C@]12C` is ____.
[out] 100
